# target desc: HLA-A*02:01 (Homo sapiens, UniProt P04439, D140Y/D185E/D98H/E176V/E277Q/G131W/G231S/I119V/I121R/I166T/I218V/L300P/L318F/N151K/N90K/P208A/P217A/Q86G/Q94H/R138H/R169H/T345S)
# assay overview: MHC binding assay (UV-ligand exchange, ELISA of exchange yield)
# setup conditions: binding to HLA-A*02:01, UV-ligand exchange
readout label: Peptide exchange (MHC class I binding score, peptide exchange yield)

433 (AMLNEPWAV; listed as Homo sapiens) [compound 433]    “+++” (≥50 = +++)
278 (QLLDVVLTI; listed as Homo sapiens) [compound 278]    “++” (≥20% = ++)
21 (VLDELDMEL; listed as Homo sapiens) [compound 21]    “++” (≥20% = ++)
397 (YLFGERLLEC; listed as Homo sapiens) [compound 397]    “+++” (≥50 = +++)
361 (ALYELEGTTV; listed as Homo sapiens) [compound 361]    “+++” (≥50 = +++)
516 (AVGPASILKEV; listed as Homo sapiens) [compound 516]    “++” (≥20% = ++)
348 (ILLDVKTRL; listed as Homo sapiens) [compound 348]    “++++” (≥75% = ++++)
20 (RMIEYFIDV; listed as Homo sapiens) [compound 20]    “+++” (≥50 = +++)
569 (KLVDRTWTL; listed as Homo sapiens) [compound 569]    “+++” (≥50 = +++)
219 (KLSDIGITV; listed as Homo sapiens) [compound 219]    “+++” (≥50 = +++)

In one line, give reported Peptide exchange (MHC class I binding score, peptide exchange yield) of the entry 38 (FLLEDDIHVS; listed as Homo sapiens) [compound 38] .
“+++” (≥50 = +++)

In one line, give reported Peptide exchange (MHC class I binding score, peptide exchange yield) of the entry 461 (VMFRTPLASV; listed as Homo sapiens) [compound 461] .
“++” (≥20% = ++)

In one line, give reported Peptide exchange (MHC class I binding score, peptide exchange yield) of the entry 463 (SLVESHLSDQLTL; listed as Homo sapiens) [compound 463] .
“+++” (≥50 = +++)

In one line, give reported Peptide exchange (MHC class I binding score, peptide exchange yield) of the entry 82 (FLSSVTYNL; listed as Homo sapiens) [compound 82] .
“+++” (≥50 = +++)

In one line, give reported Peptide exchange (MHC class I binding score, peptide exchange yield) of the entry 471 (YLYNNMIAKI; listed as Homo sapiens) [compound 471] .
“+++” (≥50 = +++)

In one line, give reported Peptide exchange (MHC class I binding score, peptide exchange yield) of the entry 17 (GLLPGDRLVSV; listed as Homo sapiens) [compound 17] .
“+++” (≥50 = +++)

In one line, give reported Peptide exchange (MHC class I binding score, peptide exchange yield) of the entry 136 (YLADPSNLFVV; listed as Homo sapiens) [compound 136] .
“+++” (≥50 = +++)

In one line, give reported Peptide exchange (MHC class I binding score, peptide exchange yield) of the entry 141 (YLDFSNNRL; listed as Homo sapiens) [compound 141] .
“++” (≥20% = ++)

In one line, give reported Peptide exchange (MHC class I binding score, peptide exchange yield) of the entry 151 (KILQQLVTL; listed as Homo sapiens) [compound 151] .
“+++” (≥50 = +++)

In one line, give reported Peptide exchange (MHC class I binding score, peptide exchange yield) of the entry 257 (SIFSAFLSV; listed as Homo sapiens) [compound 257] .
“+++” (≥50 = +++)
